These measurements were taken from ChEMBL document CHEMBL1151145.

- measurement.description: Toxicity against Artemia salina after 24 hrs
- Assay type: organism-based
- recorded.conditions: in vivo
Can you tell me LC50 at 24 h for the items I'm about to list?
Unit ng/mL implied. Number only.

What LC50 at 24 h value was documented for this molecule, C#C/C=C\CCCCCCCCCCCCCC/C=C\CC/C=C/C#CC(O)C#CCCCC/C=C\CCCCCC/C=C/C(O)C#C (stereo not drawn) ?
7.5

What LC50 at 24 h value was documented for this molecule, C#C[C@@H](O)/C=C/CCCCCC/C=C\CCCCC#C[C@H](O)C#C/C=C/CC/C=C\CCCCCCCCCCCCC/C=C/[C@H](O)C#C [PETROFORMYNE 1] ?
14

What LC50 at 24 h value was documented for this molecule, C#CC(O)/C=C/CC/C=C\CCCC/C=C\CCC#CC(O)C#C/C=C/CC/C=C\CCCCCCCCCCCCC/C=C/C(O)C#C (stereo not drawn) ?
9

What LC50 at 24 h value was documented for this molecule, C#CC(O)/C=C/CCCCCCCCCCCCCCCCCCCCCCCCCCCCCCCCC/C=C\C#CC(=O)OC (stereo not drawn) ?
2

What LC50 at 24 h value was documented for this molecule, C#CCCCCCCCCCCCCCCCC/C=C\CC/C=C/C#C[C@@H](O)C#CCCCC/C=C\CCCCCC/C=C/[C@H](O)C#C [PETROFORMYNE 3] ?
3

What LC50 at 24 h value was documented for this molecule, C#CC(O)/C=C/CCCCCCCCCCCCCCCCCCCCCCCCCCCCCCCCCCC/C=C\C#CC(=O)OC (stereo not drawn) [PETROFORMYNE B] ?
2.5

What LC50 at 24 h value was documented for this molecule, C#C/C=C\CCCCCCCCCCCCCC/C=C\CC/C=C/C#CC(O)C#CCCCC/C=C\CCCCCC/C=C/C(=O)C#C (stereo not drawn) ?
40

What LC50 at 24 h value was documented for this molecule, C#CCCCCCCCCCCCCCCCC/C=C\CC/C=C/C#CC(O)C#CCCCC/C=C\CCCCCC/C=C/C(=O)C#C (stereo not drawn) [PETROFORMYNE 6] ?
120

====

Can you tell me LC50 at 48 h for the items I'm about to list?
- measurement.description: Inhibition of sea urchin egg development after 48 hrs
- recorded.conditions: echinoidea, sea urchin eggs
The number alone won't do; follow it with the unit.

What LC50 at 48 h value was documented for this compound, "C#CCCCCCCCCCCCCCCCC/C=C\CC/C=C/C#C[C@@H](O)C#CCCCC/C=C\CCCCCC/C=C/[C@H](O)C#C" ?
10 mg/L

What LC50 at 48 h value was documented for this compound, C#CC(O)/C=C/CC/C=C\CCCC/C=C\CCC#CC(O)C#C/C=C/CC/C=C\CCCCCCCCCCCCC/C=C/C(O)C#C (centres undefined) ?
1 mg/L

What LC50 at 48 h value was documented for this compound, "C#C[C@@H](O)/C=C/CCCCCC/C=C\CCCCC#C[C@H](O)C#C/C=C/CC/C=C\CCCCCCCCCCCCC/C=C/[C@H](O)C#C" ?
10 mg/L

What LC50 at 48 h value was documented for this compound, C#C/C=C\CCCCCCCCCCCCCC/C=C\CC/C=C/C#CC(O)C#CCCCC/C=C\CCCCCC/C=C/C(O)C#C (centres undefined) ?
50 mg/L
